FYI, the data here is from patent US8507469B2.

Where a name gives a salt, the structure may show the parent alone.
The compounds below have reported Ki for h-5-HT6 receptor (Homo sapiens, UniProt P50406).

Q: Give the reported Ki for this compound. CCCN1CC(c2ccc3c(ccn3S(=O)(=O)c3ccc(-c4cnco4)cc3)c2)C1 [compound 6, hydrochloride]
Ans: < 250 nM

Q: Give the reported Ki for this compound. O=S(=O)(c1ccccc1)n1ccc2cc(C3CNC3)cnc21 [compound 46, formic acid salt]
Ans: < 10 nM

Q: Give the reported Ki for this compound. O=S(=O)(c1cccnc1)n1cc(C2CNC2)c2ccccc21 [compound 24, hydrochloride]
Ans: < 10 nM

Q: Give the reported Ki for this compound. O=S(=O)(c1ccccc1OC(F)(F)F)n1ccc2cc(C3CNC3)ccc21
Ans: < 5 nM
